Value source: patent USRE38257E1

Reported Decrease in systolic blood pressure (mmHg) time after administration (hour) 0.5 values follow for various compounds
Tested on: male spontaneously hypertensive rats
Assay: Decrease in systolic blood pressure in spontaneously hypertensive rats after intravenous bolus injection, indirect (tail-cuff) method
Assay type: in vivo, rat
Details: dose 10 mg/kg i.v. bolus, 0.5 hour after administration
Method: As test animals, four male spontaneously hypertensive rats (weight 400 to 440 g) that were sufficiently adapted for feeding and in which hypertension was confirmed were used. Physiological saline aqueous solution containing 2.5% Nicolle and 2.5% ethanol of sample was intravenously administered by bolus injection at a dose of 1 ml per 1 kg of body weight. Systolic blood pressure after administration was measured by the indirect (tail-cuff) method.

Some solved entries appear below for comparison.
{"columns": ["compound", "experimental_value"],
 "data": [
  ["Cl.N#CC1CCC(CCCCN2CCC(=C3c4ccccc4C=Cc4ccccc43)CC2)CC1 (stereo not shown) [Example 297]", "−129 mmHg"],
  ["C=CCC(CCN1CCC(=C2c3ccccc3C=Cc3ccccc32)CC1)C(=O)c1ccc(OC)c(OC)c1.Cl (stereo not shown) [Example 276]", "−24 mmHg"],
  ["O=C(Cc1ccc(F)cc1)N1CCC(=C2c3ccccc3C=Cc3ccccc32)CC1 [Example 191]", "−29 mmHg"]
]}

Here's the next entry for you.
[Q] Requested read-out: Decrease in systolic blood pressure (mmHg) time after administration (hour) 0.5. Entry: CCCCCCCCN1CCC(=C2c3ccccc3C=Cc3ccccc32)CC1.Cl [Example 2]
[A] −125 mmHg

====

Tested on: male spontaneously hypertensive rats
Assay: Decrease in systolic blood pressure in spontaneously hypertensive rats after intravenous bolus injection, indirect (tail-cuff) method
Type: in vivo, rat
Conditions: dose 10 mg/kg i.v. bolus, 0.5 hour after administration
The label yes (1) is reserved for Decrease in systolic blood pressure (mmHg) time after administration (hour) 0.5 strictly under -100 mmHg; no (0) covers values equal to or above it.

{"columns": ["compound", "class_label"],
 "data": [
  ["O=C(CCCC1CCCCC1)N1CCC(=C2c3ccccc3C=Cc3ccccc32)CC1 [Example 157]", "no (0)"],
  ["C1=Cc2ccccc2C(=C2CCN(CCCCCc3ccccc3)CC2)c2ccccc21.Cl [Example 16]", "yes (1)"],
  ["COC(=O)C1(CCCCCN2CCC(=C3c4ccccc4C=Cc4ccccc43)CC2)CCCCC1.Cl [Example 313]", "yes (1)"],
  ["Cl.N#Cc1ccccc1CN1CCC(=C2c3ccccc3C=Cc3ccccc32)CC1 [Example 158]", "no (0)"],
  ["CCC(CCN1CCC(=C2c3ccccc3C=Cc3ccccc32)CC1)C(=O)c1ccc(OC)c(OC)c1.Cl (centres unmarked) [Example 278]", "no (0)"],
  ["CC(=O)Nc1ccc(CCCCN2CCC(=C3c4ccccc4C=Cc4ccccc43)CC2)cc1.Cl.Cl [Example 197]", "no (0)"],
  ["CCOC(=O)C1CCN(C(=O)CCCN2CCC(=C3c4ccccc4C=Cc4ccccc43)CC2)CC1.Cl [Example 217]", "no (0)"],
  ["O=C(O)C(CCN1CCC(=C2c3ccccc3C=Cc3ccccc32)CC1)C1CCCCC1 (centres unmarked) [Example 238]", "no (0)"],
  ["Cl.Cl.Nc1cccc(CN2CCC(=C3c4ccccc4C=Cc4ccccc43)CC2)c1 [Example 139]", "yes (1)"],
  ["COc1cccc(C=CCN2CCC(=C3c4ccccc4C=Cc4ccccc43)CC2)c1OC.Cl [Example 193]", "yes (1)"]
]}

[Q] Hi there! Is Decrease in systolic blood pressure (mmHg) time after administration (hour) 0.5 for CCCCCCCCCC(=O)N1CCC(=C2c3ccccc3C=Cc3ccccc32)CC1 [Example 164] below -100 mmHg, do you know?
[A] no (0)
